Ref: ChEMBL document CHEMBL3877294

The compounds listed here are annotated with their EC90.
Tested on: Nonstructural protein 5A (Hepatitis C virus), Q5L478 [Y93H]
Sequence (Q5L478 entry or part of it Y93H): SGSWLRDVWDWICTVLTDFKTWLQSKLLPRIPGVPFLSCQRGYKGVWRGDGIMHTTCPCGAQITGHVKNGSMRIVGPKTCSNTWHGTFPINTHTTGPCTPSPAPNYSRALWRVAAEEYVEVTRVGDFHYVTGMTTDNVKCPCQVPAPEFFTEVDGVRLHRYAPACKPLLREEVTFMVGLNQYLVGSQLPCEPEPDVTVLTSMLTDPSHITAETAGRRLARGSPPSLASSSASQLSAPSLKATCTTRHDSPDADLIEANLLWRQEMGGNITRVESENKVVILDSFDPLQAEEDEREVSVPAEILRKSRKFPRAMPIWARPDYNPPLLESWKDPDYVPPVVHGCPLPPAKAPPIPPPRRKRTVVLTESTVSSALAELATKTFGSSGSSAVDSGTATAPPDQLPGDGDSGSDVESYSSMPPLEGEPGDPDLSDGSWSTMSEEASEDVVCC
assay.info: Inhibition of HCV genotype-1a NS5A Y93H mutant infected in human HuH7 cells by luciferase reporter gene assay
Format: cell-based
condition.context: Hepatitis C virus subtype 1a; Huh-7
Give the number; nM is assumed, so skip it.

Please review the entries below; each comes with its answer.
{"columns": ["compound", "EC90 (nM)"],
 "data": [
  ["COC(=O)N[C@H](C(=O)N1CCC[C@H]1c1ncc(-c2cc(F)c3c(c2)OC(c2cnc(C(F)F)s2)n2c-3cc3cc(-c4cnc([C@@H]5CCCN5C(=O)[C@@H](NC(=O)OC)C(C)C)[nH]4)ccc32)[nH]1)C(C)C (stereo not given in full)", 0.056],
  ["CCCc1ncc(C2Oc3cc(-c4cnc([C@@H]5CCCN5C(=O)[C@@H](NC(=O)OC)C(C)C)[nH]4)cc(F)c3-c3cc4cc(-c5cnc([C@@H]6CCCN6C(=O)[C@@H](NC(=O)OC)C(C)C)[nH]5)ccc4n32)s1 (stereo not given in full)", 0.088],
  ["CCc1nnc(C2Oc3cc(-c4cnc([C@@H]5CCCN5C(=O)[C@@H](NC(=O)OC)C(C)C)[nH]4)cc(F)c3-c3cc4cc(-c5cnc([C@@H]6CCCN6C(=O)[C@@H](NC(=O)OC)C(C)C)[nH]5)ccc4n32)s1 (stereo not given in full)", 7.4]
]}

Given the compound COC(=O)N[C@H](C(=O)N1CCC[C@H]1c1ncc(-c2cc(F)c3c(c2)OC(c2cc4c(s2)CCC4)n2c-3cc3cc(-c4cnc([C@@H]5CCCN5C(=O)[C@@H](NC(=O)OC)C(C)C)[nH]4)ccc32)[nH]1)C(C)C (stereo not given in full) , write its reported EC90.
0.26

Name the recorded EC90 of the compound listed here: COC(=O)N[C@H](C(=O)N1CCC[C@H]1c1ncc(-c2ccc3c(c2)O[C@@H](c2ccc(C4CC4)cc2)n2c-3cc3cc(-c4cnc([C@@H]5CCCN5C(=O)[C@@H](NC(=O)OC)C(C)C)[nH]4)ccc32)[nH]1)C(C)C
8

* * *

# key: entry, value: Selectivity ratio
Test system: Hepatitis C virus subtype 1a
assay.info: Selectivity ratio for EC90 for HCV genotype-1a NS5A Y93H mutant to EC90 for HCV genotype-1a NS5A

{"columns": ["compound", "result"],
 "data": [
  ["COC(=O)N[C@H](C(=O)N1CCC[C@H]1c1ncc(-c2cc(F)c3c(c2)OC(c2cccs2)n2c-3cc3cc(-c4cnc([C@@H]5CCCN5C(=O)[C@@H](NC(=O)OC)C(C)C)[nH]4)ccc32)[nH]1)C(C)C (mixture of isomers)", 100],
  ["CCc1ccc([C@@H]2Oc3cc(-c4cnc([C@@H]5CCCN5C(=O)[C@@H](NC(=O)OC)C(C)C)[nH]4)cc(F)c3-c3cc4cc(-c5cnc([C@@H]6CCCN6C(=O)[C@@H](NC(=O)OC)C(C)C)[nH]5)ccc4n32)s1", 20],
  ["COC(=O)N[C@H](C(=O)N1CCC[C@H]1c1ncc(-c2ccc3c(c2)OC(c2ccc(C4CC4)s2)n2c-3cc3cc(-c4cnc([C@@H]5CCCN5C(=O)[C@@H](NC(=O)OC)C(C)C)[nH]4)ccc32)[nH]1)C(C)C (some centres undefined)", 400]
]}

Now for a further compound.
Name the recorded Selectivity ratio of the compound listed here: COC(=O)N[C@H](C(=O)N1CCC[C@H]1c1ncc(-c2ccc3c(c2)OC(c2ccc(Cl)s2)n2c-3cc3cc(-c4cnc([C@@H]5CCCN5C(=O)[C@@H](NC(=O)OC)C(C)C)[nH]4)ccc32)[nH]1)C(C)C (mixture of isomers)
200

* * *

Tested on: Hepatitis C virus subtype 1a
assay.info: Selectivity ratio for EC90 for HCV genotype-1a NS5A Y93H mutant to EC90 for HCV genotype-1a NS5A
This section presents compounds with their documented Selectivity ratio values.
Lab note: record the figure alone, no unit after it.

Some entries whose results are on file:
{"columns": ["compound", "value.type", "readout.number"],
 "data": [
  ["CCOc1cccc([C@@H]2Oc3cc(-c4cnc([C@@H]5CCCN5C(=O)[C@@H](NC(=O)OC)C(C)C)[nH]4)cc(F)c3-c3cc4cc(-c5cnc([C@@H]6CCCN6C(=O)[C@@H](NC(=O)OC)C(C)C)[nH]5)ccc4n32)c1", "Selectivity ratio", 200],
  ["CCCc1ncc(C2Oc3cc(-c4cnc([C@@H]5CCCN5C(=O)[C@@H](NC(=O)OC)C(C)C)[nH]4)cc(F)c3-c3cc4cc(-c5cnc([C@@H]6CCCN6C(=O)[C@@H](NC(=O)OC)C(C)C)[nH]5)ccc4n32)s1 (some centres undefined)", "Selectivity ratio", 88],
  ["COC(=O)N[C@H](C(=O)N1CCC[C@H]1c1ncc(-c2ccc3c(c2)O[C@@H](c2ccc(C4CC4)cc2)n2c-3cc3cc(-c4cnc([C@@H]5CCCN5C(=O)[C@@H](NC(=O)OC)C(C)C)[nH]4)ccc32)[nH]1)C(C)C", "Selectivity ratio", 1900]
]}

Proceeding to the next compound to report its Selectivity ratio.
Fill in reported Selectivity ratio for this entry: CCc1ccc([C@@H]2Oc3cc(-c4cnc([C@@H]5CCCN5C(=O)[C@@H](NC(=O)OC)C(C)C)[nH]4)ccc3-c3cc4cc(-c5cnc([C@@H]6CCCN6C(=O)[C@@H](NC(=O)OC)C(C)C)[nH]5)ccc4n32)s1
680

* * *

System: Nonstructural protein 5A (Hepatitis C virus), Q5L478 [UNDEFINED MUTATION]
assay.info: Inhibition of HCV genotype-1a NS5A L31V mutant infected in human HuH7 cells by luciferase reporter gene assay
Assay type: cell-based
condition.context: Hepatitis C virus subtype 1a; Huh-7
Collected EC90 values appear next to each entry.

# return EC90 of COC(=O)N[C@H](C(=O)N1CCC[C@H]1c1ncc(-c2cc(F)c3c(c2)OC(c2cc(F)c(C4CC4)s2)n2c-3cc3cc(-c4cnc([C@@H]5CCCN5C(=O)[C@@H](NC(=O)OC)C(C)C)[nH]4)ccc32)[nH]1)C(C)C (stereo partly drawn) (system: Nonstructural protein 5A (Hepatitis C virus), Q5L478 [UNDEFINED MUTATION])
29 pM

Provide Nonstructural protein 5A (Hepatitis C virus), Q5L478 [UNDEFINED MUTATION] EC90 reading for COC(=O)N[C@H](C(=O)N1CCC[C@H]1c1ncc(-c2cc(F)c3c(c2)OC(c2cc4c(s2)CCC4)n2c-3cc3cc(-c4cnc([C@@H]5CCCN5C(=O)[C@@H](NC(=O)OC)C(C)C)[nH]4)ccc32)[nH]1)C(C)C (stereo partly drawn) .
3 pM

State EC90 on Nonstructural protein 5A (Hepatitis C virus), Q5L478 [UNDEFINED MUTATION]. Entry: COC(=O)N[C@H](C(=O)N1CCC[C@H]1c1ncc(-c2cc(F)c3c(c2)OC(c2cnc(C(F)F)s2)n2c-3cc3cc(-c4cnc([C@@H]5CCCN5C(=O)[C@@H](NC(=O)OC)C(C)C)[nH]4)ccc32)[nH]1)C(C)C (stereo partly drawn)
3 pM

* * *

assay.info: Half life in rhesus monkey at 1 mg/kg, iv by LC/MS/MS method
Type: ADME, organism-based, Macaca mulatta
condition.context: in vivo
value.type: half-life (h)
Give just the number in h; leave the unit off.

Identify measured half-life associated with COC(=O)N[C@H](C(=O)N1CCC[C@H]1c1ncc(-c2cc(F)c3c(c2)OC(c2cc(C(C)C)no2)n2c-3cc3cc(-c4cnc([C@@H]5CCCN5C(=O)[C@@H](NC(=O)OC)C(C)C)[nH]4)ccc32)[nH]1)C(C)C (stereo partly specified)
10.2

* * *

assay.info: AUC (0 to t) in rat at 10 mg/kg, po measured after 24 hrs by LC/MS method
Type: ADME, organism-based
Design: dose 10 mg/kg, time < 24 hr, route oral
condition.context: in vivo
value.type: AUC(0-t) at 24 h
In your response, put the unit directly after the numeric value.

Dear colleague, please send me the reported AUC(0-t) at 24 h for COC(=O)N[C@H](C(=O)N1CCC[C@H]1c1ncc(-c2cc(F)c3c(c2)OC(c2cnc(C4CC4)s2)n2c-3cc3cc(-c4cnc([C@@H]5C[C@H]6C[C@H]6N5C(=O)[C@@H](NC(=O)OC)C(C)C)[nH]4)ccc32)[nH]1)C(C)C (stereo partly specified) when you can.
0.52 µM·h

* * *

assay.info: Drug uptake in rat at 10 mg/kg, po measured at 24 hrs post dose by LC/MS method
Assay type: ADME, organism-based
condition.context: in vivo, read-out: Drug uptake
So basically, if concentration at 24 h comes in under 3 nM it's condition met, and if it's 3 nM or more it's condition not met.

{"columns": ["molecule", "class"],
 "data": [
  ["COC(=O)N[C@H](C(=O)N1CCC[C@H]1c1ncc(-c2cc(F)c3c(c2)OC(c2ccc(C4CC4)s2)n2c-3cc3cc(-c4cnc([C@@H]5CCCN5C(=O)[C@@H](NC(=O)OC)C(C)C)[nH]4)ccc32)[nH]1)C(C)C (stereo not given in full)", "condition not met"],
  ["COC(=O)N[C@H](C(=O)N1CCC[C@H]1c1ncc(-c2cc(F)c3c(c2)OC(c2cnc(C4CC4)s2)n2c-3cc3cc(-c4cnc([C@@H]5C[C@H]6C[C@H]6N5C(=O)[C@@H](NC(=O)OC)C(C)C)[nH]4)ccc32)[nH]1)C(C)C (stereo not given in full)", "condition met"],
  ["CCCc1ncc(C2Oc3cc(-c4cnc([C@@H]5CCCN5C(=O)[C@@H](NC(=O)OC)C(C)C)[nH]4)cc(F)c3-c3cc4cc(-c5cnc([C@@H]6CCCN6C(=O)[C@@H](NC(=O)OC)C(C)C)[nH]5)ccc4n32)s1 (stereo not given in full)", "condition not met"]
]}

Note: attention shifts to another entry.
concentration at 24 h strictly < 3 nM for this molecule? CCc1ccc([C@@H]2Oc3cc(-c4cnc([C@@H]5CCCN5C(=O)[C@@H](NC(=O)OC)C(C)C)[nH]4)cc(F)c3-c3cc4cc(-c5cnc([C@@H]6CCCN6C(=O)[C@@H](NC(=O)OC)C(C)C)[nH]5)ccc4n32)s1
condition not met
